Measured values drawn from patent US12187662B2 for this set.

test system: MCF7 cells; test: Cell proliferation assay (WST-1), MCF7; assay type: cell-based, human; conditions: Homo sapiens, MCF7, inhibition of cell proliferation; read-out: IC50 MCF7
pIC50: −log10 of the molar value.
measured.parameter: pIC50

Answered cases to consult:
# compound, pIC50
data = [
    ("C=C(NC(=O)C(=C)NC(=O)c1csc(C2=N[C@@H]3c4csc(n4)[C@H]4NC(=O)c5csc(n5)[C@H]([C@](C)(O)[C@@H](C)O)NC(=O)[C@H]5CSC(=N5)/C(=C/C)NC(=O)[C@H]([C@@H](C)O)NC(=O)c5csc(n5)[C@]3(CC2)NC(=O)[C@H](C)NC(=O)C(=C)NC(=O)[C@H](C)NC(=O)[C@H]([C@@H](C)CC)N[C@@H]2C=Cc3c([C@H](C)O)cc(nc3[C@H]2O)C(=O)O[C@@H]4C)n1)C(N)=O [thiostrepton, reference compound]", 5.85),
    ("C[N+]1(CCCCCCOc2ccc(C(c3ccc(Cl)cc3)=C3C4C[C@H]5C[C@@H](C4)C[C@H]3C5)cc2)CCCC1", 5.26),
    ("C[N+]1(CCCCCCOc2ccc(C(=C3C4CC5CC(C4)CC3C5)c3ccc(OCCCCCC[N+]4(C)CCC[C@H]4CO)cc3)cc2)CCC[C@H]1CO (some centres unmarked)", 6.05),
]

A = OC[C@@H]1CCCN1CCCCCCOc1ccc(C(=C2C3CC4CC(C3)CC2C4)c2ccc(OCCCCCCN3CCC[C@H]3CO)cc2)cc1
B = C[n+]1ccn(CCCCCCOc2ccc(C(=C3C4CC5CC(C4)CC3C5)c3ccc(Cl)cc3)cc2)c1
Identify the item whose pIC50 is the smaller number: A or B # reply format: chosen label
B
(B: 5.26, A: 6.15)

---

test: Pharmacokinetic studies in mice after single s.c. or oral dose; conditions: female, CD-1, mouse, plasma, po, 40 mg/kg
measured.parameter: half-life (h)
Write the value in h as a bare number.

// sample `CCN(CC)CCCCCCOc1ccc(C(=C2C3CC4CC(C3)CC2C4)c2ccc(O)cc2)cc1` , its half-life was 15.1

---

test system: MDA-MB-453 breast cancer cells; assay: Cell proliferation, MDA-MB-453; assay type: cell-based, human; settings: inhibition of cell proliferation
pIC50: −log10 of the molar value.
measured.parameter: pIC50

// sample Clc1ccc(C(=C2C3CC4CC(C3)CC2C4)c2ccc(OCCCCCCN3CCCC3)cc2)cc1 [NB-55] , its pIC50 was 5.30 to 5.52

---

tested on: MCF7 cells; experiment: Cell proliferation assay (WST-1), MCF7; type: cell-based, human; conditions: Homo sapiens, MCF7, inhibition of cell proliferation; read-out: IC50 MCF7
measured.parameter: IC50 (nM)

Answered cases to consult:
# molecule, measured.parameter, measured.value
rows = [
    ("CC1(O)C[N+](C)(CCCCCCOc2ccc(C(=C3C4CC5CC(C4)CC3C5)c3ccc(OCCCCCC[N+]4(C)CC(C)(O)C4)cc3)cc2)C1 (stereo not drawn)", "IC50", 1800),
    ("CN1CCN(CCCCCCOc2ccc(C(=C3C4CC5CC(C4)CC3C5)c3ccc(OCCCCCCN4CCN(C)CC4)cc3)cc2)CC1", "IC50", 800),
    ("c1cc(C(=C2C3CC4CC(C3)CC2C4)c2ccc(OCCCCCCN3CCC3)cc2)ccc1OCCCCCCN1CCC1", "IC50", 800),
    ("c1cn(CCCCCCOc2ccc(C(=C3C4CC5CC(C4)CC3C5)c3ccc(OCCCCCCn4ccnc4)cc3)cc2)cn1", "IC50", 7500),
]

P = OC1CN(CCCCCCOc2ccc(C(=C3C4CC5CC(C4)CC3C5)c3ccc(OCCCCCCN4CC(O)C4)cc3)cc2)C1
Q = OCC[N+]1(CCCCCCOc2ccc(C(=C3C4CC5CC(C4)CC3C5)c3ccc(OCCCCCC[N+]4(CCO)CCCCCC4)cc3)cc2)CCCCCC1
So which one has the bigger IC50 here, P or Q ? # reply format: chosen label
Q
(Q: 2400 nM, P: 900 nM)

P = C[N+]1(CCCCOc2ccc(C(=C3C4CC5CC(C4)CC3C5)c3ccc(OCCCC[N+]4(C)CCCCC4)cc3)cc2)CCCCC1
Q = C[N+]1(CCCCCCOc2ccc(C(=C3C4CC5CC(C4)CC3C5)c3ccc(OCCCCCC[N+]4(C)CCCC4)cc3)cc2)CCCC1
Identify the item whose IC50 is the smaller number: P or Q # reply format: chosen label
Q
(Q: 800 nM, P: 1400 nM)
